Provenance of the data: PubChem BioAssay (NCI)

# Test system: SF-268 CNS
# Procedure text: NCI-60 one-dose screen, 48 h
# Conditions: 10 µM
The panel holds about 83,000 compounds, 20% with a hit somewhere; the sample as a whole holds those more often. Active and inactive are the calls of the source. Rule for the calls: active = growth percent below 10; inactive = the rest.
Possible outcomes: active, inactive

• Nc1ccc(C2=CC(c3ccc(Cl)cc3)N3C=CSC3=N2)cc1 (stereo unspecified) = active
• CCN(CC)CC(O)CNc1ccnc2cc(Cl)c(Cl)cc12 (stereo unspecified) = inactive
• O=C1/C(=C/c2ccc([N+](=O)[O-])s2)Oc2ccc(Cl)cc21 = active
• CC(=O)n1nc(C(=O)OC(C)(C)C)c2cc(F)c(F)cc21 = inactive
• COc1cccc(C2(C)Nc3ccccc3-c3nc4ccccc4n32)c1 (stereo unspecified) = inactive
• FC(F)(F)c1ccc(-c2cnc(Br)nc2NC2CCCCCC2)cc1 = inactive

* * *

# System: SK-MEL-28 melanoma
# Procedure text: NCI-60 one-dose screen, 48 h
# Conditions: 10 µM
About 83,000 compounds went through this panel and 20% of them were active in at least one assay; those are over-represented in the sample as a whole. Activity calls are given as the source filed them. Rule for the calls: active = growth percent below 10; inactive = the rest.
Possible outcomes: YES for active, NO for inactive

• NC1CCC(Nc2nc(NCc3cc(Cl)ccc3O)c3ncn(C4CCCC4)c3n2)CC1 (stereo unspecified) = YES
• O=C/C=C/c1ccc([N+](=O)[O-])cc1Cl = NO
• COc1ccc(Cn2cc3c(c2-c2ccccc2)CC(C)(C)c2cnoc2-3)cc1 = NO
• COc1ccc(-c2nnc(COc3ccc(NC(=O)Nc4cccc(C(F)(F)F)c4)cc3F)o2)cc1 = NO
• COC(=O)c1cnc2c(c1)Oc1ccccc1-c1ccnn1-2 = NO
• O=C(O)c1cc(C(F)(F)F)cc(C(F)(F)F)c1 = NO
• COc1cc(-c2c(C#N)c(N)n3c(nc4ccccc43)c2C#N)cc(Br)c1OC = NO
• COc1cc(-c2nc3ccccc3[nH]2)ccc1OCC(=O)N=Nc1c(O)[nH]c2ccccc12 = NO
• CCC(OC(=O)CC(C)C)c1ccccc1 (stereo unspecified) = NO
• O=C(CCCC(=O)N/N=C/c1cc(Cl)ccc1O)N/N=C\c1cc(Cl)ccc1O = NO
• c1ccc(OCCC[P+](c2ccccc2)(c2ccccc2)c2ccccc2)cc1 = NO

* * *

# System: LOX IMVI melanoma
# Procedure text: NCI-60 one-dose screen, 48 h (100 = growth as untreated, 0 = no growth, -100 = all killed)
# Conditions: 10 µM
# Experimental: Growth inhibition of the LOX IMVI human tumor cell line is measured as a screen for anti-cancer activity. Cells are grown in 96 well plates and exposed to the test compound for 48 hours. Compounds are tested at a single concentration, which is 10^-5 M for most compounds. The reported endpoint is percent growth (GI% or GIPRCNT), where numbers from 0 - 100% represent growth inhibition, and numbers from -100% - 0 represent cell death. For example, a value of 40 represents 60% growth inhibition. […]
This is part of a sample that, as a whole, favours compounds with a hit. Of some 83,000 tested, about 20% had one in any assay.
We use 50% as the dividing line for growth: on or above the line is y, below is n.

• Cc1ncc([N+](=O)[O-])n1CCOc1ccc(C(=O)/C=C/c2ccc(C(F)(F)F)cc2)cc1 = y
• Cc1ccc([P+](Cc2ccccc2)(c2ccccc2)c2ccccc2)cc1 = n
• CCCCc1ccc(NC(=O)N(CCCl)N=O)cc1 = y
• O=C1CC[C@@H](C(=O)N[C@H]2CSSC[C@@H](C(=O)N/C=C/c3ccc(O)cc3)NC(=O)[C@H](Cc3ccccc3)NC(=O)[C@@H]3CCCN3C(=O)[C@@H]3CCCN3C2=O)N1 = y
• Nc1ccc(C2=CC(c3ccc(Cl)cc3)N3C=CSC3=N2)cc1 (centres undefined) = n
• COc1ccc(Nc2ccnc(N3CCN(c4ccnc5cc(Cl)ccc45)CC3)n2)cc1 = n
• Cc1ccc(C)c2c1sc1nc3n[nH]c(N)c3c(=N)n12 = y
• CCOc1ccc(-n2cc(-c3ccc(N(C)C)cc3)[n+]3c2CCCCC3)cc1 = n
